tested on: Echinochloa oryzicola; assay: Herbicidal activity against Echinochloa oryzicola assessed as killing at 25 g/ha pre-emergence application under paddy conditions; assay type: functional
Items are presented alongside their recorded Activity.
Kindly answer with a numeric value in %, unit omitted.

The examples below pair each entry with its known result.
>  <compound>
CCCOC(=O)C(CC(C)C)S(=O)(=O)c1ncn(C(=O)N(CC)CC)n1 (stereo not given)

>  <unit-tag>
%

>  <Activity>
90

$$$$
>  <compound>
CCN(CC)C(=O)n1cnc(S(=O)(=O)[C@H](CC(C)C)C(=O)OC(C)C)n1

>  <unit-tag>
%

>  <Activity>
90

$$$$
>  <compound>
CCN(CC)C(=O)n1cnc(S(=O)(=O)C(CC(C)C)C(=O)OC)n1 (stereo not given)

>  <unit-tag>
%

>  <Activity>
100

$$$$
>  <compound>
CCOC(=O)C(CC(C)C)S(=O)(=O)c1ncn(C(=O)N(CC)CC)n1 (stereo not given)

>  <unit-tag>
%

>  <Activity>
90

$$$$
>  <compound>
CCN(CC)C(=O)n1cnc(S(=O)(=O)c2c(C)cc(C)cc2C)n1

>  <unit-tag>
%

>  <Activity>
100

$$$$
>  <compound>
CCN(CC)C(=O)n1cnc(S(=O)(=O)C(CC(C)C)C(=O)OCC(C)C)n1 (stereo not given)

>  <unit-tag>
%

>  <Activity>
40

$$$$
>  <compound>
CCN(CC)C(=O)n1cnc(S(=O)(=O)C(CC(C)C)C(=O)OC(C)C)n1 (stereo not given)

>  <unit-tag>
%

>  <Activity>
90

$$$$
>  <compound>
CCCCOC(=O)C(CC(C)C)S(=O)(=O)c1ncn(C(=O)N(CC)CC)n1 (stereo not given)

>  <unit-tag>
%

>  <Activity>
100

$$$$
>  <compound>
CCN(CC)C(=O)n1cnc(S(=O)(=O)C(CC(C)C)C(=O)OC(C)(C)C)n1 (stereo not given)

>  <unit-tag>
%

>  <Activity>
30

$$$$

Please examine the following record next.
Problem: Using the record for CCCCCOC(=O)C(CC(C)C)S(=O)(=O)c1ncn(C(=O)N(CC)CC)n1 (stereo not given) , report its Activity.
Solution: 40

---

tested on: Echinochloa oryzicola; assay: Herbicidal activity against Echinochloa oryzicola assessed as killing at 50 g/ha pre-emergence application under paddy conditions; type: functional
Items are presented alongside their recorded Activity.
Kindly answer with a numeric value in %, unit omitted.

The examples below pair each entry with its known result.
>  <molecule>
CC(C)CC(C(=O)OC(C)C)S(=O)(=O)c1ncn(C(=O)N2CCOCC2)n1 (stereo not given)

>  <unit-tag>
%

>  <Activity>
10

$$$$
>  <molecule>
CCN(CC)C(=O)n1cnc(S(=O)(=O)C(CC2CCCCC2)C(=O)OC)n1 (stereo not given)

>  <unit-tag>
%

>  <Activity>
100

$$$$
>  <molecule>
CCN(CC)C(=O)n1cnc(S(=O)(=O)C(C)C(=O)OC)n1 (stereo not given)

>  <unit-tag>
%

>  <Activity>
10

$$$$
>  <molecule>
CCN(CC)C(=O)n1cnc(S(=O)(=O)CCC(C)C)n1

>  <unit-tag>
%

>  <Activity>
100

$$$$
>  <molecule>
CCCCC(C(=O)OC)S(=O)(=O)c1ncn(C(=O)N(CC)CC)n1 (stereo not given)

>  <unit-tag>
%

>  <Activity>
90

$$$$

Please examine the following record next.
Problem: Using the record for C=C(C)CC(C(=O)OC)S(=O)(=O)c1ncn(C(=O)N(CC)CC)n1 (stereo not given) , report its Activity.
Solution: 90

---

Items are presented alongside their recorded logP.
experiment: Octanol-water partition coefficient, log K of the compound; format: physicochemical; conditions: read-out: log K
Reply with the value as a number alone.

The examples below pair each entry with its known result.
>  <compound>
CCN(CC)C(=O)n1cnc(S(=O)(=O)C(CCCC#N)C(=O)OC)n1 (stereo unspecified)

>  <logP>
0.41

$$$$
>  <compound>
CCCCCOC(=O)C(CC(C)C)S(=O)(=O)c1ncn(C(=O)N(CC)CC)n1 (stereo unspecified)

>  <logP>
1.18

$$$$
>  <compound>
CCCC(C(=O)OC)S(=O)(=O)c1ncn(C(=O)N(CC)CC)n1 (stereo unspecified)

>  <logP>
0.58

$$$$
>  <compound>
CCOC(=O)C(CC(C)C)S(=O)(=O)c1ncn(C(=O)N(CC)CC)n1 (stereo unspecified)

>  <logP>
0.78

$$$$
>  <compound>
CCCCC(C(=O)OC)S(=O)(=O)c1ncn(C(=O)N(CC)CC)n1 (stereo unspecified)

>  <logP>
0.69

$$$$
>  <compound>
C=CC(C)C(C(=O)OC)S(=O)(=O)c1ncn(C(=O)N(CC)CC)n1 (stereo unspecified)

>  <logP>
0.63

$$$$
>  <compound>
CCN(CC)C(=O)n1cnc(S(=O)(=O)C(CC(=O)OC)C(=O)OC)n1 (stereo unspecified)

>  <logP>
0.45

$$$$
>  <compound>
CCN(CC)C(=O)n1cnc(S(=O)(=O)C(C)C(=O)OC)n1 (stereo unspecified)

>  <logP>
0.41

$$$$
>  <compound>
CCN(CC)C(=O)n1cnc(S(=O)(=O)C(CC(C)C)C(=O)OC)n1 (stereo unspecified)

>  <logP>
0.68

$$$$
>  <compound>
CCN(CC)C(=O)n1cnc(S(=O)(=O)CC(=O)OC)n1

>  <logP>
0.36

$$$$

Problem: Using the record for CCN(CC)C(=O)n1cnc(S(=O)(=O)C(CC(C)C)C(=O)OCC(C)C)n1 (stereo unspecified) , report its logP.
Solution: 1.03

Problem: Using the record for CCC(C(=O)OC)S(=O)(=O)c1ncn(C(=O)N(CC)CC)n1 (stereo unspecified) , report its logP.
Solution: 0.49

Problem: Using the record for C=C(C)CC(C(=O)OC)S(=O)(=O)c1ncn(C(=O)N(CC)CC)n1 (stereo unspecified) , report its logP.
Solution: 0.63

Problem: Using the record for CCC(C)CC(C(=O)OC)S(=O)(=O)c1ncn(C(=O)N(CC)CC)n1 (stereo unspecified) , report its logP.
Solution: 0.79

Problem: Using the record for CCC(CC)C(C(=O)OC)S(=O)(=O)c1ncn(C(=O)N(CC)CC)n1 (stereo unspecified) , report its logP.
Solution: 0.76

---

assay: Herbicidal activity against broadleaf weed assessed as killing at 25 g/ha pre-emergence application under paddy conditions; type: functional
endpoint-label: Activity (%)
Kindly answer with a numeric value in %, unit omitted.

The examples below pair each entry with its known result.
>  <compound>
CCN(CC)C(=O)n1cnc(S(=O)(=O)[C@H](CC(C)C)C(=O)OC(C)C)n1

>  <Activity (%)>
60

$$$$
>  <compound>
CCN(CC)C(=O)n1cnc(S(=O)(=O)C(CC(C)C)C(=O)OCC(C)C)n1 (stereo not given)

>  <Activity (%)>
30

$$$$
>  <compound>
CCN(CC)C(=O)n1cnc(S(=O)(=O)C(CC(C)C)C(=O)OC(C)(C)C)n1 (stereo not given)

>  <Activity (%)>
10

$$$$
>  <compound>
CCOC(=O)C(CC(C)C)S(=O)(=O)c1ncn(C(=O)N(CC)CC)n1 (stereo not given)

>  <Activity (%)>
50

$$$$

Please examine the following record next.
Problem: Using the record for CCCCCOC(=O)C(CC(C)C)S(=O)(=O)c1ncn(C(=O)N(CC)CC)n1 (stereo not given) , report its Activity.
Solution: 30

---

Items are presented alongside their recorded Activity.
system: Schoenoplectiella juncoides; assay: Herbicidal activity against Schoenoplectiella juncoides assessed as killing at 50 g/ha pre-emergence application under paddy conditions; assay type: functional
Kindly answer with a numeric value in %, unit omitted.

The examples below pair each entry with its known result.
>  <compound>
CCN(CC)C(=O)n1cnc(S(=O)(=O)C(CC(C)C)C(=O)OC)n1 (configuration not stated)

>  <Activity (%)>
100

$$$$
>  <compound>
CCN(CC)C(=O)n1cnc(S(=O)(=O)C(C(=O)OC)C2CC2)n1 (configuration not stated)

>  <Activity (%)>
10

$$$$
>  <compound>
CCN(CC)C(=O)n1cnc(S(=O)(=O)C(CCCC#N)C(=O)OC)n1 (configuration not stated)

>  <Activity (%)>
10

$$$$
>  <compound>
CCCOC(=O)C(CC(C)C)S(=O)(=O)c1ncn(C(=O)N(CC)CC)n1 (configuration not stated)

>  <Activity (%)>
100

$$$$
>  <compound>
CCC(C)CC(C(=O)OC)S(=O)(=O)c1ncn(C(=O)N(CC)CC)n1 (configuration not stated)

>  <Activity (%)>
80

$$$$

Problem: Using the record for CC(C)CC(C(=O)OC(C)C)S(=O)(=O)c1ncn(C(=O)N(C)C2CCCCC2)n1 (configuration not stated) , report its Activity.
Solution: 10

Problem: Using the record for CCCC(C(=O)OC)S(=O)(=O)c1ncn(C(=O)N(CC)CC)n1 (configuration not stated) , report its Activity.
Solution: 60

Problem: Using the record for `CCN(CC)C(=O)n1cnc(S(=O)(=O)CC(=O)OC)n1` , report its Activity.
Solution: 10

Problem: Using the record for CC(C)CC(C(=O)OC(C)C)S(=O)(=O)c1ncn(C(=O)N(C(C)C)C(C)C)n1 (configuration not stated) , report its Activity.
Solution: 30

Origin of measurements: ChEMBL document CHEMBL3044861
